These measurements were taken from paper PMC4445678.

- tested system: T1, C-RING1B (C-terminal domain of RING1B), wild-type (human, UniProt Q99496 222-336)
- T1 sequence (looked up): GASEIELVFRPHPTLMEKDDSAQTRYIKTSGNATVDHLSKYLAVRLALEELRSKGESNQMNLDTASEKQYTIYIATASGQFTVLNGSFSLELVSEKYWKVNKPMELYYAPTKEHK
- experiment notes: SPR
pKd: −log10 of the molar value.
Reported values of pKd for individual entries
value type: pKd

[[record]]
binder = "MBP-RYBP 145–198 (domain or fragment, human, UniProt Q8N488 145-198, looked up) RPRLKNVDRSTAQQLAVTVGNVTVIITDFKEKTRSSSTSSSTVTSSAGSEQQNQ"
value_type = "pKd"
endpoint_result = 7.00

[[record]]
binder = "RPRLKNVDRSTAQQLAVTVGNVTVIITDFKEKTRS (domain or fragment, human, UniProt Q8N488 145-179, looked up) [MBP-RYBP 145–179]"
value_type = "pKd"
endpoint_result = 7.05

